Target: mouse melanocortin 4 receptor (mouse, UniProt P56450 1-332)
Sequence (P56450 whole entry): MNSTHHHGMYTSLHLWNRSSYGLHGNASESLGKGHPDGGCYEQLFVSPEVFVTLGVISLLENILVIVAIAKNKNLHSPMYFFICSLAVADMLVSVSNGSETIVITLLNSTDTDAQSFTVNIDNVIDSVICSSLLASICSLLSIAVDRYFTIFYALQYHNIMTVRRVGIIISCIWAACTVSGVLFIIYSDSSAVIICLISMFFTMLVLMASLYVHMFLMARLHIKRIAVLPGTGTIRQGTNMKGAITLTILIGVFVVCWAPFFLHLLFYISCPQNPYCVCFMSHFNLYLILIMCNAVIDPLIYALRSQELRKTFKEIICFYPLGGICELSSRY
Assay: cell-based or functional assay
Non-standard residues stand in square brackets, D forms with d. Dap = NC[C@H](N)C(=O)O
Listed here are binders together with their documented EC50 (nM), agonist, cAMP AlphaScreen.
Just the number please, in nM, no unit attached.

binder | output_unit | reported_result
cyclo(PH[dF]RW[Dap]A[dP]) (also: TFA salt) [MDE6-5-2c, c[Pro-His-DPhe-Arg-Trp-Dap-Ala-DPro]] | nM | 1.6
cyclo(PH[dF]RW[Dap][dP]) (also: TFA salt) [MDE6-12-2c, c[Pro-His-DPhe-Arg-Trp-Dap-DPro]] | nM | 950
cyclo(P[dF]RWNA[dP]) (also: TFA salt) [MDE6-3-1c, c[Pro-DPhe-Arg-Trp-Asn-Ala-DPro]] | nM | 420

So what's the measured EC50 (nM), agonist, cAMP AlphaScreen for this one? cyclo(PH[dF]RWN[dP]) (also: TFA salt) [MDE6-10-2c, c[Pro-His-DPhe-Arg-Trp-Asn-DPro]]
170

So what's the measured EC50 (nM), agonist, cAMP AlphaScreen for this one? cyclo(PH[dF]RWNAF[dP]) (also: TFA salt) [MDE5-149-2c, c[Pro-His-DPhe-Arg-Trp-Asn-Ala-Phe-DPro]]
1.4

So what's the measured EC50 (nM), agonist, cAMP AlphaScreen for this one? cyclo(P[dF]RW[Dap]A[dP]) (also: TFA salt) [MDE6-5-1c, c[Pro-DPhe-Arg-Trp-Dap-Ala-DPro]]
150

So what's the measured EC50 (nM), agonist, cAMP AlphaScreen for this one? cyclo(P[dF]RWNAF[dP]) (also: TFA salt) [MDE5-149-1c, c[Pro-DPhe-Arg-Trp-Asn-Ala-Phe-DPro]]
130

Data provenance: patent US20180118789A1
